Source of measurements: patent US10669272B2

Molecular target: human DGKα (Homo sapiens, UniProt P23743)
Construct: TVMV protease cleavage site (C); Hexa-His (C); made in house; host or cells: Sf9 insect cells (baculovirus, Bac-to-Bac)
Sequence (P23743 with tags, fused parts or gaps): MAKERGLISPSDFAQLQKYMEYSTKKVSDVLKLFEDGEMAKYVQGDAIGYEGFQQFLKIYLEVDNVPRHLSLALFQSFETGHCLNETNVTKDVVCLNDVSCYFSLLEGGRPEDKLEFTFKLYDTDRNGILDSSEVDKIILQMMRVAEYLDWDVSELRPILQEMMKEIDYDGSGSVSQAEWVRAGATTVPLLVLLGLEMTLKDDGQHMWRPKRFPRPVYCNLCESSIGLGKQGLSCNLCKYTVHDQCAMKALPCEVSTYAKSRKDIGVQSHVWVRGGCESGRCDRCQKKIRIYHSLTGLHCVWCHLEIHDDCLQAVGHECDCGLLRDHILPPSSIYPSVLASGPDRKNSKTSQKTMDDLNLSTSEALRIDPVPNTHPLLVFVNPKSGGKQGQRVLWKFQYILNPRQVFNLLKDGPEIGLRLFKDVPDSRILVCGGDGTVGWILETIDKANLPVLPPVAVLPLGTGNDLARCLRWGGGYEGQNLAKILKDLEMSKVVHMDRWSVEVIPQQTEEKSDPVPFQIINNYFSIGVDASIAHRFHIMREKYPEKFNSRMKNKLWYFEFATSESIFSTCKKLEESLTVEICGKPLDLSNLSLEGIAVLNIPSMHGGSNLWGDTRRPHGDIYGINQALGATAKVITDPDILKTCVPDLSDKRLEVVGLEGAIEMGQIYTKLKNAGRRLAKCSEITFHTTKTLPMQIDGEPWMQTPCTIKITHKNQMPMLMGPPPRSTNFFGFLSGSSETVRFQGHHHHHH
Assay: DGKα LIPGLO assay (extruded liposome substrate), in vitro DGK inhibition
Assay type: biochemical
Details: liposome (LIPGLO) assay; read-out: DGKa LIPGLO IC50
experimental readout: pIC50
Field pIC50 (float): negative decimal logarithm of the concentration in molar.

compound | pIC50
CC(c1ccc(F)c(Cl)c1)N1C[C@H](C)N(c2cc(=O)n(C)c3ccc(C#N)nc23)C[C@H]1C (single isomer, unassigned) [Example 1256] | 6.17

pIC50 of CC[C@H]1CN(C(c2cccc(F)c2)c2ccc(C)cn2)[C@H](C)CN1c1cc(=O)n(C)c2ccc(C#N)nc12 (single isomer, unassigned) [Example 1126] , assay on human DGKα (Homo sapiens, UniProt P23743), is 5.92

The value of pIC50 recorded for C[C@@H]1CN(c2cc(=O)n(C)c3ccc(C#N)nc23)[C@@H](C)CN1C(c1ccc(F)cc1)C1CCOCC1 (single isomer, unassigned) [Example 388] when tested on human DGKα (Homo sapiens, UniProt P23743) reads 5.07
